Listing: protein stability index of selected variants
B1: INTS4 (parent)
chain: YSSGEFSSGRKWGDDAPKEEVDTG

Variants of: B1
measurement-protocol: protein stability index of a GFP-peptide fusion (GPS, HEK-293T) (PSI 1-6); higher = more stable;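 further: lentivirally expressed fusions sorted by FACS into six bins by GFP to DsRed ratio, PSI derived from sequencing read proportions per bin multiplied by bin number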
experimental-setup: c terminus: a fixed tail appended
Lab note: record just the number, no unit beside it.

Here are 3 variants together with their reported answers.
E20R	2.28
R10G	2.93
E5T	3.55

Query: Endpoint output: protein stability index of K18D . Value?
Reply: 3.16

Query: Endpoint output: protein stability index of S7Y . Value?
Reply: 2.52
